# experimentSummary: AUC in human at 1.5 ug administered as 1 drop intraocularly QD after 24 hrs
# Assay type: ADME
# Set-up: dose 1.5 ug, time < 24 hr, route intraocular
# runConditions: in vivo, topical or ocular
measuredEndpoint: AUC at 24 h
Answer by giving the amount and then stating its unit.

stdin: Note AUC at 24 h for the compound shown: CC(C)OC(=O)CCC/C=C\C[C@@H]1[C@@H](CC[C@@H](O)CCc2ccccc2)[C@H](O)C[C@@H]1O
stdout: 0.047 µM·h

###

# experimentSummary: Drug concentration at steady state in human at 60 to 100 mg/m2, iv via infusion for 1 hr every 3 weeks measured after 1 hr
# Assay type: ADME, organism-based
# runConditions: in vivo, read-out: Css
measuredEndpoint: concentration at 1 h (µM)
Numeric only. Scale: µM

stdin: Note concentration at 1 h for the compound shown: CC(=O)O[C@@]12CO[C@@H]1C[C@H](O)[C@@]1(C)C(=O)[C@H](O)C3=C(C)[C@@H](OC(=O)[C@H](O)[C@@H](NC(=O)OC(C)(C)C)c4ccccc4)C[C@@](O)([C@@H](OC(=O)c4ccccc4)[C@H]21)C3(C)C [DOCETAXEL ANHYDROUS]
stdout: 6.52

###

# experimentSummary: AUC in human at 400 to 800 mg, po QD after 24 hrs
# Assay type: ADME, organism-based
# runConditions: in vivo
measuredEndpoint: AUC at 24 h (µM·h)
Numeric only. Scale: µM·h

stdin: Note AUC at 24 h for the compound shown: CC(=O)O[C@]1(C(C)=O)CC[C@H]2[C@@H]3C=C(C)C4=CC(=O)CC[C@]4(C)[C@H]3CC[C@@]21C [MEGESTROL ACETATE]
stdout: 35.8

###

Examples of sequences with documented IC50 follow.
# targetOfAssay: ATP-binding cassette sub-family C member 2 (Homo sapiens)
# Sequence (Q92887 whole entry): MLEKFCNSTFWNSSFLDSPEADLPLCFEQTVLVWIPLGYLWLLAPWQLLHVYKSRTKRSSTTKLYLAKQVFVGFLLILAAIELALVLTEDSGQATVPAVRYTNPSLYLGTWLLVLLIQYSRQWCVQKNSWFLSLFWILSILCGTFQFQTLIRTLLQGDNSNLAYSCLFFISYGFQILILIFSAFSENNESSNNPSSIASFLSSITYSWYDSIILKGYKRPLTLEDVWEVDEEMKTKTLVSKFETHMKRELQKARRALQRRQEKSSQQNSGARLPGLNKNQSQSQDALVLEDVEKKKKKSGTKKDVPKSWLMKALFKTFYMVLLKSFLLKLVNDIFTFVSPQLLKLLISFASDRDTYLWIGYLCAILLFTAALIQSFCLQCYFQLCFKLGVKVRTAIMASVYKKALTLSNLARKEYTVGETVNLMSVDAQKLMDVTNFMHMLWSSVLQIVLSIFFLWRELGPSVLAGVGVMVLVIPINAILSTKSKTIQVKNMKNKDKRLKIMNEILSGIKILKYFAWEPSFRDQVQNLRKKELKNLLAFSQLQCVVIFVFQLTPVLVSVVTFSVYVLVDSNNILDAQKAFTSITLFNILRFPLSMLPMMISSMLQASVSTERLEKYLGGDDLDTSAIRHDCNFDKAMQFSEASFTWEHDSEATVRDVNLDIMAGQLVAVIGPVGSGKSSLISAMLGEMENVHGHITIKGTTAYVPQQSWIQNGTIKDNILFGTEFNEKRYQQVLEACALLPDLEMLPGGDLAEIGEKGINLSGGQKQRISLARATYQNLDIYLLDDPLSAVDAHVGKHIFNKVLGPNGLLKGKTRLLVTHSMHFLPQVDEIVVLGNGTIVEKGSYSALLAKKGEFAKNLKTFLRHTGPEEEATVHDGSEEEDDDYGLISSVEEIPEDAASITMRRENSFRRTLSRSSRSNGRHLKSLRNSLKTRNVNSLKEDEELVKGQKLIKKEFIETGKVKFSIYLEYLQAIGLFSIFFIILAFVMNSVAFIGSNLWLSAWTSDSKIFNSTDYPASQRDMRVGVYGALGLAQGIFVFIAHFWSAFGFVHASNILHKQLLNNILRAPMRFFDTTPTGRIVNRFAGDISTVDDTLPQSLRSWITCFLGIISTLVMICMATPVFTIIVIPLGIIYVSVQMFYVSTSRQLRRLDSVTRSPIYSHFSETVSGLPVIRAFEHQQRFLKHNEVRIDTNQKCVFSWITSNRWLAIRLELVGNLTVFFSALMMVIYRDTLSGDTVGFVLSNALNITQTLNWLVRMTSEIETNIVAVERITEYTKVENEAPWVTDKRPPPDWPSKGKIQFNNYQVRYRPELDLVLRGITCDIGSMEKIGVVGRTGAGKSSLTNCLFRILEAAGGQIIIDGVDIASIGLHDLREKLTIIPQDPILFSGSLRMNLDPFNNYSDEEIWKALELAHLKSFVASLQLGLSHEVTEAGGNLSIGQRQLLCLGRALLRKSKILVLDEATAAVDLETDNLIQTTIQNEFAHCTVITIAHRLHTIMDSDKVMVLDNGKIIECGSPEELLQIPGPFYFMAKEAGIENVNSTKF
# experimentSummary: Inhibition of human MRP2 overexpressed in Sf9 cell membrane vesicles assessed as uptake of [3H]-estradiol-17beta-D-glucuronide in presence of ATP and GSH measured after 20 mins by membrane vesicle transport assay

>>> df
      sequence  datavalue
0  BIVALIRUDIN   > 133 µM

Consider the additional sequence presented here.
stdin: Note IC50 for the sequence shown: SPIRAMYCIN
stdout: > 133 µM

###

# experimentSummary: Drug concentration at steady state in patient with osteomyelitis at 1500 mg, po QD after 24 hrs
# Format: ADME, organism-based
# runConditions: human, in vivo, read-out: Css
measuredEndpoint: concentration at 24 h (µM)
Numeric only. Scale: µM

stdin: Note concentration at 24 h for the compound shown: CC(=O)O[C@H]1C[C@@]2(C)[C@@H](C[C@@H](O)[C@H]3[C@@]4(C)CC[C@@H](O)[C@@H](C)[C@@H]4CC[C@@]32C)/C1=C(\CCC=C(C)C)C(=O)O [FUSIDIC ACID]
stdout: 266

###

# experimentSummary: Drug concentration at steady state in human at 200 to 1200 mg, po QD after 24 hrs
# runConditions: in vivo
measuredEndpoint: concentration at 24 h (nM)
Numeric only. Scale: nM

stdin: Note concentration at 24 h for the molecule shown: CCCCc1oc2ccccc2c1C(=O)c1cc(I)c(OCCN(CC)CC)c(I)c1
stdout: 1360

###

# targetOfAssay: Bile salt export pump (Homo sapiens, UniProt O95342)
# Sequence (O95342 whole entry): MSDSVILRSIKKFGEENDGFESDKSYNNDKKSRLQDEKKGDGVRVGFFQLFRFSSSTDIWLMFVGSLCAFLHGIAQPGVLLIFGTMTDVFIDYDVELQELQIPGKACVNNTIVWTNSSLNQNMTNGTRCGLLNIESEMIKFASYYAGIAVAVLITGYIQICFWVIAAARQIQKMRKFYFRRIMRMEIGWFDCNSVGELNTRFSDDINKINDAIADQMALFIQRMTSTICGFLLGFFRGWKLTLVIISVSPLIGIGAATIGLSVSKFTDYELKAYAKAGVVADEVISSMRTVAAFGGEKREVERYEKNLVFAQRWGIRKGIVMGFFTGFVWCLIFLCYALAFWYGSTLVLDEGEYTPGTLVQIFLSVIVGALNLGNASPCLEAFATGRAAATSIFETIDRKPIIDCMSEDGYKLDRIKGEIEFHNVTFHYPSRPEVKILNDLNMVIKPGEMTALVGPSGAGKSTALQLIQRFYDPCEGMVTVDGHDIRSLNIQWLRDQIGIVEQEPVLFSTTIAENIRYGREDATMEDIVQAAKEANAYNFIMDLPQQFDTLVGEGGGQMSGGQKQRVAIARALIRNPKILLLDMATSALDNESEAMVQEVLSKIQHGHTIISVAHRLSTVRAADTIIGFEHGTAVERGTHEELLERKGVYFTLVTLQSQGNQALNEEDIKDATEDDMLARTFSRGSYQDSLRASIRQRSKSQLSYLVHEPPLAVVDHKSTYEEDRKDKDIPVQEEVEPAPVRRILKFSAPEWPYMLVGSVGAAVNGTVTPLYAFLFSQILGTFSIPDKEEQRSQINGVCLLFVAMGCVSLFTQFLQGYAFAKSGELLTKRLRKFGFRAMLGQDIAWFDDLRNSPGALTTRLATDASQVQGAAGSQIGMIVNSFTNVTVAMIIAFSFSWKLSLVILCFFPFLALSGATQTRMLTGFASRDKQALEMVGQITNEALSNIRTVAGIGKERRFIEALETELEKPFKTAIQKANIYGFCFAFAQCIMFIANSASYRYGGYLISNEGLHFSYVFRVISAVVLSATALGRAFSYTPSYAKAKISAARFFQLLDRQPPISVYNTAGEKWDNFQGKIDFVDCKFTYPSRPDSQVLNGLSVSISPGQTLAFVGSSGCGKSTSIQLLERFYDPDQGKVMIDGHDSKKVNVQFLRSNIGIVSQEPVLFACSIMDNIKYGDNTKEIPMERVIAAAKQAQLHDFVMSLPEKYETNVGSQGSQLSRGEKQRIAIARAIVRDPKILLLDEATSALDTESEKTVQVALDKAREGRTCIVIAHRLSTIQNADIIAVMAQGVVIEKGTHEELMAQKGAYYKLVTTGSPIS
# experimentSummary: Inhibition of human BSEP overexpressed in Sf9 cell membrane vesicles assessed as uptake of [3H]-taurocholate in presence of ATP measured after 15 to 20 mins by membrane vesicle transport assay
measuredEndpoint: IC50

Sample answers from the record:
compound	measuredEndpoint	dataValue
Cc1cn([C@@H]2C[C@@H](O)[C@H](CO)O2)c(=O)[nH]c1=O [TELBIVUDINE]	IC50	> 133 µM
CC[C@@H]([C@H](C)O)n1ncn(-c2ccc(N3CCN(c4ccc(OC[C@@H]5CO[C@@](Cn6cncn6)(c6ccc(F)cc6F)C5)cc4)CC3)cc2)c1=O [POSACONAZOLE]	IC50	8.1 µM
Nc1nc(Cl)nc2c1ncn2[C@H]1C[C@H](O)[C@@H](CO)O1 [CLADRIBINE]	IC50	> 133 µM
O=C(CCCCCCC(=O)Nc1ccccc1)NO [VORINOSTAT]	IC50	> 133 µM
OCCN(CCO)c1nc(N2CCCCC2)c2nc(N(CCO)CCO)nc(N3CCCCC3)c2n1 [DIPYRIDAMOLE]	IC50	4 µM

stdin: Write down the reported IC50 (system: Bile salt export pump (Homo sapiens, UniProt O95342)) of COc1cc(C(C)=O)ccc1OCCCN1CCC(c2noc3cc(F)ccc23)CC1 [ILOPERIDONE]
stdout: 23.4 µM

stdin: Write down the reported IC50 (system: Bile salt export pump (Homo sapiens, UniProt O95342)) of COC(=O)[C@@H]1CC2=CC(=O)CC[C@]2(C)[C@@]23O[C@@H]2C[C@@]2(C)[C@@H](CC[C@@]24CCC(=O)O4)[C@H]13 [EPLERENONE]
stdout: > 133 µM

stdin: Write down the reported IC50 (system: Bile salt export pump (Homo sapiens, UniProt O95342)) of Nc1nc2ccc(OC(F)(F)F)cc2s1 [RILUZOLE]
stdout: > 133 µM

stdin: Write down the reported IC50 (system: Bile salt export pump (Homo sapiens, UniProt O95342)) of COc1c(O[C@@H]2O[C@H](CO)[C@@H](O)[C@H](O)[C@H]2O)cc2c(c1OC)-c1ccc(SC)c(=O)cc1[C@@H](NC(C)=O)CC2 [THIOCOLCHICOSIDE]
stdout: > 133 µM

stdin: Write down the reported IC50 (system: Bile salt export pump (Homo sapiens, UniProt O95342)) of CN1CCN(C(=O)O[C@H]2c3nccnc3C(=O)N2c2ccc(Cl)cn2)CC1 [ESZOPICLONE]
stdout: > 133 µM
